Hello, the source for this data is patent US20210278408A1, in case you need it.

Test system: 407 cancer cell lines
Assay: Cell viability of cancer cell lines (IC50), CellTiter-Glo Viability Assay, 96 h
Type: cell-based
Details: NCI-H520 cells, 96 h; read-out: Absolute IC50
Protocol: Viability was determined by using the 50% inhibitory concentration (IC50) as determined with the CellTiter-Glo® Viability Assay (Promega). Experiments were initiated by first thawing and equilibrating the CellTiter-Glo® Buffer to room temperature. The lyophilized CellTiter-Glo® Substrate was also equilibrated to room temperature. […] Cells were harvested during the logarithmic growth period, counted, and the cell concentration adjusted to 4.44×10^4 cells/mL using culture medium. […]
QUANTITY KIND: IC50 (µM)
One number for each entry, in µM.

Give the measured IC50 of N.N.[Cl][Pt][Cl] [Cisplatin, reference compound] .
10.7
